Entries and their inhibition of SARS-CoV-2 cytopathic effect
- System: Vero E6 infected with SARS-CoV-2
- measurement.notes: inhibition of SARS-CoV-2 cytopathic effect; higher = more antiviral protection, active = above 15
- condition.details: 833.33 nM; 48 h
measure.name: inhibition of SARS-CoV-2 cytopathic effect (%)

molecule: C[C@H](NC(=O)Cc1cc(F)cc(F)c1)C(=O)N[C@@H]1C(=O)N(C)c2ccccc2-c2ccccc21
quantitative.result: -7.86
//
molecule: O=C(O)[C@H]1O[C@@H](Oc2cc3oc(-c4ccccc4)cc(=O)c3c(O)c2O)[C@H](O)[C@@H](O)[C@@H]1O
quantitative.result: -5.03
//
molecule: Nc1ccc(S(N)(=O)=O)cc1 [sulfanilamide]
quantitative.result: 2.93
//
molecule: CC(C)c1ccc2c(c1)CC[C@H]1[C@](C)(CN)CCC[C@]21C
quantitative.result: -2.43
//
molecule: CC(C)(Oc1ccc(Cl)cc1)C(=O)OCCOC(=O)c1cccnc1 [etofibrate]
quantitative.result: 0.22
//
molecule: CN(C)c1ccc2c(c1)Sc1cc(N(C)C)ccc1N2
quantitative.result: 0.69
//
molecule: Cn1cnc2c(F)c(Nc3ccc(Br)cc3F)c(C(=O)NOCCO)cc21
quantitative.result: -10.1
//
molecule: Nc1nc(=O)n([C@H]2C[C@H](O)[C@@H](CO)O2)cc1F
quantitative.result: 8.53
//
molecule: CCN(CC)C(=O)N[C@H]1C[C@@H]2c3cccc4[nH]cc(c34)C[C@H]2N(C)C1 [terguride]
quantitative.result: -2.15
//
molecule: C[C@]12CC[C@@H]3c4ccc(O)cc4CC[C@H]3[C@@H]1CCC2=O
quantitative.result: 0.5
//
molecule: CC(C)CC(=O)Nc1n[nH]c2c1CN(C(=O)C1CCN(C)CC1)C2(C)C
quantitative.result: 0.59
//
molecule: C=C1/C(=C\C=C2/CCC[C@]3(C)[C@@H]([C@H](C)CC[C@@H](O)C(C)C)CC[C@@H]23)C[C@@H](O)C[C@@H]1O
quantitative.result: 1.18
//
molecule: C[C@]12CC[C@@H]3c4ccc(OC(=O)N(CCCl)CCCl)cc4CC[C@H]3[C@@H]1CC[C@@H]2OP(=O)(O)O [estramustine-phosphate]
quantitative.result: -1.57
//
molecule: O=C(N[C@H](CO)[C@H](O)c1ccc([N+](=O)[O-])cc1)C(Cl)Cl
quantitative.result: 0.21
//
molecule: OC(c1ccccc1)C1CCN(CCc2ccccc2)CC1 (stereo not drawn)
quantitative.result: -0.54
//
molecule: COc1cc(C[C@H](C)[C@H](C)Cc2ccc3c(c2)OCO3)ccc1O
quantitative.result: 2.57
//
molecule: O=C(C1CC1)N1CC[C@@H](Cc2n[nH]c(=O)n2-c2ccc(-c3ccc4occc4c3)cc2)C1
quantitative.result: -0.64
//
molecule: COc1cc(-n2cnc3cc(-c4ccc(Cl)cc4)sc3c2=O)ccc1OCCN1CCCC1
quantitative.result: -2.38
//
molecule: Cc1cc(=O)oc2c(C=O)c(O)ccc12
quantitative.result: 2.83
//
molecule: CC(C)c1ccc(CC(=O)N2CCC[C@@H](c3cccc(OC(C)(C)C(=O)O)c3)C2)cc1
quantitative.result: 1.87
//
molecule: CCCC[N+]1(C)[C@@H]2C[C@@H](OC(=O)[C@H](CO)c3ccccc3)C[C@H]1[C@@H]1O[C@@H]12 (stereo partly drawn) [butylscopolamine-bromide]
quantitative.result: 0.56
//
molecule: C=CC(=O)Nc1cccc(Nc2nc(Nc3ccc(OCCOC)cc3)ncc2F)c1
quantitative.result: -6.55
//
molecule: CCCCCCCCCCCCCCCCCCCCCCCCC(=O)O
quantitative.result: -0.23
//
molecule: NCc1cc(O)no1
quantitative.result: 0.14
//
molecule: Nc1c(-c2cccc(C(F)(F)F)c2)nsc1C(=O)O
quantitative.result: 0.87
//
molecule: CC(C)Cc1ccc(C(C)C(=O)O)cc1 (stereo not drawn)
quantitative.result: 1.1
//
molecule: COc1ccccc1N1CCN(CCCNc2cc(=O)n(C)c(=O)n2C)CC1
quantitative.result: 2.04
//
molecule: COc1ccc2c(c1)c(CC(=O)O)c(C)n2C(=O)c1ccc(Cl)cc1
quantitative.result: 0.83

* * *

- Tested on: Vero E6 infected with SARS-CoV-2
- measurement.notes: inhibition of SARS-CoV-2 cytopathic effect; higher = more antiviral protection, active = above 15
- condition.details: 10000 nM; 48 h
Entries and their inhibition of SARS-CoV-2 cytopathic effect
measure.name: inhibition of SARS-CoV-2 cytopathic effect (%)

molecule: CC1(C)C[C@@H]1C(=O)N/C(=C\CCCCSC[C@H](N)C(=O)O)C(=O)O [Cilastatin Sodium]
quantitative.result: -0.52
--
molecule: C[C@]12CCC(=O)C=C1CC[C@@H]1[C@@H]2[C@@H](O)C[C@@]2(C)[C@H]1CC[C@]2(O)C(=O)COP(=O)(O)O [hydrocortisone-phosphate]
quantitative.result: 1.11
--
molecule: CCCCCCCC/C=C\CCCCCCCC(=O)N[C@@H](CO)Cc1ccc(O)cc1
quantitative.result: -2.65
--
molecule: Oc1ccc(-c2nc(-c3ccc(F)cc3)c(-c3ccncc3)[nH]2)cc1
quantitative.result: 8.91
--
molecule: O=C(O)Cc1ccccc1Nc1c(Cl)cccc1Cl [diclofenac]
quantitative.result: 0.2
--
molecule: CC1(C)CC(=O)c2c(C(F)(F)F)nn(-c3ccc(C(N)=O)c(N[C@H]4CC[C@H](OC(=O)CN)CC4)c3)c2C1
quantitative.result: -0.73
--
molecule: Cc1csc2c(N[C@@H](C)CN3CCN(S(=O)(=O)c4ccc(Cl)c(Cl)c4)CC3)ncnc12 [LPA2-antagonist-1]
quantitative.result: 5.53
--
molecule: Clc1cccc(SC2CCNCC2)n1 [anpirtoline]
quantitative.result: -4.79
--
molecule: Cc1cn([C@H]2O[C@@H](CO)[C@H](O)[C@H]2F)c(=O)[nH]c1=O [clevudine]
quantitative.result: 1.38
--
molecule: O=C(CCCCCCC(=O)Nc1ccccc1)NO [vorinostat]
quantitative.result: -23.6

* * *

- Tested on: Vero E6 infected with SARS-CoV-2
- measurement.notes: inhibition of SARS-CoV-2 cytopathic effect; higher = more antiviral protection, active = above 15
- condition.details: 100 nM; 48 h
Entries and their inhibition of SARS-CoV-2 cytopathic effect
measure.name: inhibition of SARS-CoV-2 cytopathic effect (%)

molecule: CN(C)CCN(Cc1ccccc1)c1ccccn1
units: %
quantitative.result: 0.58
--
molecule: O=C(CSc1nc2c(c(=O)n1-c1ccccc1)SCC2)Nc1ccc(-c2ccccc2)cn1
units: %
quantitative.result: 3.88
--
molecule: COc1cc(C2Oc3cc([C@H]4Oc5cc(O)cc(O)c5C(=O)[C@@H]4O)ccc3OC2CO)ccc1O (some centres undefined)
units: %
quantitative.result: 0.27
--
molecule: COc1ccc(C(=O)NCc2ccc(OCCN(C)C)cc2)cc1OC [itopride]
units: %
quantitative.result: 1.77
--
molecule: CC(C)COC(=O)c1ccc(N)cc1
units: %
quantitative.result: -1.06
--
molecule: CCCCN(CCCC)CCC(O)c1cc2c(Cl)cc(Cl)cc2c2cc(C(F)(F)F)ccc12 (centres undefined)
units: %
quantitative.result: 3.05
--
molecule: O=C(O)C(=O)CBr [3-bromopyruvate]
units: %
quantitative.result: 4.96
--
molecule: COc1cc2c(NC3CCN(C)CC3)nc(N3CCCN(C)CC3)nc2cc1OCCCN(C)C
units: %
quantitative.result: 3.09
--
molecule: Cc1cc(C(N)=O)ccc1-n1c(CCC(=O)O)ccc1-c1ccc(-n2ccnc2)cc1
units: %
quantitative.result: 2.45

* * *

- Tested on: Vero E6 infected with SARS-CoV-2
- measurement.notes: inhibition of SARS-CoV-2 cytopathic effect; higher = more antiviral protection, active = above 15
- condition.details: 1 nM; 48 h
Entries and their inhibition of SARS-CoV-2 cytopathic effect
measure.name: inhibition of SARS-CoV-2 cytopathic effect (%)

compound: Cc1sc2c(c1C)C(c1ccc(Cl)cc1)=N[C@@H](CC(=O)Nc1ccc(OCCOCCOCCOCCNc3cccc4c3C(=O)N(C3CCC(=O)NC3=O)C4=O)cc1)c1nnc(C)n1-2 (stereo partly specified)
units: %
quantitative.result: -0.01
--
compound: CC(CCc1ccc(O)cc1)NCCc1ccc(O)c(O)c1 (stereo unspecified)
units: %
quantitative.result: -0.38
--
compound: C[C@H]1NC(=O)NC1=O
units: %
quantitative.result: -0.22
--
compound: CNC(=O)c1ccccc1Nc1nc(Nc2ccc(N3CCOCC3)cc2OC)ncc1Cl
units: %
quantitative.result: -0.14
--
compound: O=C(O)C1=C[C@@H](O)[C@@H](O)[C@H](O)C1
units: %
quantitative.result: 2.18
--
compound: CC[C@H]1OC(=O)[C@H](C)[C@@H](O[C@H]2C[C@@](C)(OC)[C@@H](O)[C@H](C)O2)[C@H](C)[C@@H](O[C@@H]2O[C@H](C)C[C@H](N(C)C)[C@H]2O)[C@](C)(O)C[C@@H](C)C(=O)[C@H](C)[C@@H](O)[C@]1(C)O
units: %
quantitative.result: -0.74
--
compound: C[C@@H](O)[C@H]1C(=O)N2C(C(=O)O)=C(S[C@@H]3CN[C@H](C(=O)N(C)C)C3)[C@H](C)[C@H]12
units: %
quantitative.result: 0.11
--
compound: S=C(S)N1CCCC1 [pyrrolidine-dithiocarbamate]
units: %
quantitative.result: 2.71
--
compound: CCc1cc2c(s1)-n1c(C)nnc1CN=C2c1ccccc1Cl
units: %
quantitative.result: 2.37
--
compound: CCCC[C@H](NC(C)=O)C(=O)N[C@H]1CC(=O)NCCCC[C@@H](C(=O)O)NC(=O)[C@H](Cc2c[nH]c3ccccc23)NC(=O)[C@H](CCCNC(=N)N)NC(=O)[C@@H](Cc2ccccc2)NC(=O)[C@H](Cc2c[nH]cn2)NC1=O [bremelanotide]
units: %
quantitative.result: 1.27
--
compound: CC(C)(C)C[C@@H]1N[C@@H](C(=O)N[C@H]2CC[C@H](O)CC2)[C@H](c2cccc(Cl)c2F)[C@]12C(=O)Nc1cc(Cl)ccc12
units: %
quantitative.result: -4.12
--
compound: CC1(C)Cc2c(-c3ccccc3)c(-c3ccc(Cl)cc3)c(CC(=O)O)n2C1
units: %
quantitative.result: -2.87
--
compound: CCN(CC)CCOc1ccc(Nc2ncc3cc(-c4c(Cl)cccc4Cl)c(=O)n(C)c3n2)cc1
units: %
quantitative.result: -0.79
--
compound: CN(C)C(=O)N[C@H]1CC[C@H](CCN2CCN(c3cccc(Cl)c3Cl)CC2)CC1
units: %
quantitative.result: -2.57
--
compound: COC1=C[C@@H]2[C@@H]3Cc4ccc(OC)c(O)c4[C@]2(CCN3C)CC1=O
units: %
quantitative.result: -1.85
--
compound: N[C@@H](CCC(=O)N[C@@H](CS)C(=O)NCC(=O)O)C(=O)O
units: %
quantitative.result: 0.94
--
compound: COc1cc2c(NC3CCN(C)CC3)nc(N3CCCN(C)CC3)nc2cc1OCCCN(C)C
units: %
quantitative.result: 2.93
--
compound: COC(=O)CCC(=O)CN [methyl-aminolevulinate]
units: %
quantitative.result: 2.97
--
compound: CC(C)C[C@H](NC(=O)CNC(=O)c1cc(Cl)ccc1Cl)B(O)O
units: %
quantitative.result: -2.33
--
compound: CCC(=O)O[C@]1(C(=O)CO)CC[C@H]2[C@@H]3CCC4=CC(=O)CC[C@]4(C)[C@H]3CC[C@@]21C
units: %
quantitative.result: 0.99
--
compound: O=[N+]([O-])c1ccc([As](=O)(O)O)cc1
units: %
quantitative.result: -0.01
--
compound: C=CCN1CC[C@]23c4c5ccc(O)c4O[C@H]2C(=O)CC[C@@]3(O)[C@H]1C5
units: %
quantitative.result: -1.98
--
compound: N#Cc1cccc(-c2nc(-c3cccnc3)no2)c1
units: %
quantitative.result: -1.62
--
compound: O=C(C(c1ccccc1)c1ccccc1)N1CCN(CC(O)COc2cccc3ncccc23)CC1 (stereo unspecified)
units: %
quantitative.result: -0.98
--
compound: CC[N+](C)(CC)CCOC(=O)C1c2ccccc2Oc2ccccc21
units: %
quantitative.result: 7.35
--
compound: Cc1sc(C)c2c1CCC=C2c1c[nH]cn1
units: %
quantitative.result: -1.05
